Cited source: PubChem BioAssay AID248

Listed below: T/C values for each entry.
# Test system: L1210 leukemia ip in BDF1 mice, survival T/C
# Test Protocol: NCI In Vivo Anticancer Drug Screen. Data for tumor model L1210 Leukemia (intraperitoneal) in B6D2F1 (BDF1) mice
# Assay Conditions: endpoint: mean survival time; dose: 200.0 mg/kg/injection; schedule: Q04DX003 (ip); vehicle: saline with Tween-80; higher = longer survival
Inconclusive results and toxic doses are left out.
Parameter: T/C

>>> result("c1ccc(C2C(c3ccccc3)N2c2ccccc2)cc1 (configuration not stated)")
"90 % of control"
>>> result("COc1cc(/C=N\\N=C\\c2ccc(O)c(OC)c2)ccc1O")
"94 % of control"
>>> result("CCOC(=O)NCCc1ccc(OC)c(OC)c1")
"112 % of control"
>>> result("O=C1OC(=O)C2CC(Cl)C(Cl)CC12 (configuration not stated)")
"100 % of control"
>>> result("CCCCC(C#N)(CCCC)C(=O)OCC")
"98 % of control"
>>> result("CCCCN(CCCC)CP(=O)(CN(CCCC)CCCC)CN(CCCC)CCCC")
"96 % of control"
>>> result("CNc1ccc(N=Nc2ccncc2C)cc1C")
"96 % of control"
>>> result("CC(C)c1nc(-c2ccccc2)c(-c2ccccc2)[nH]1")
"98 % of control"
>>> result("O=C(Cl)c1cccc2c1sc1ccccc12")
"98 % of control"
>>> result("CCOc1ccccc1NC(=S)NC(=O)CCc1ccccc1")
"97 % of control"
>>> result("Cc1cc(C)nc(NNc2nc(C)cc(C)n2)n1")
"92 % of control"
>>> result("C=CCOc1c(C)cc(C)cc1/C=C/C")
"97 % of control"
>>> result("OCCSc1ncnc2nc[nH]c12")
"98 % of control"
>>> result("O=C1OC(=O)C2CC(Br)C(Br)CC12 (configuration not stated)")
"94 % of control"
>>> result("COC(=O)c1ccccc1NC(=O)CCl")
"91 % of control"
>>> result("CCC(C)C(C(=O)OCCN(C)C)c1ccccc1 (configuration not stated)")
"92 % of control"
>>> result("CCOC(=O)CCN(CC(=O)OCC)C(C)C")
"95 % of control"

---

# System: L1210 leukemia ip in BDF1 mice, survival T/C
# Test Protocol: NCI In Vivo Anticancer Drug Screen. Data for tumor model L1210 Leukemia (intraperitoneal) in B6D2F1 (BDF1) mice
# Assay Conditions: endpoint: mean survival time; dose: 100.0 mg/kg/injection; schedule: Q01DX001 (ip); vehicle: saline; higher = longer survival
Toxic doses and inconclusive results are not listed.
Parameter: T/C

>>> result("Cc1ccc(S(=O)(=O)Oc2ccccc2NS(=O)(=O)c2ccccc2)cc1")
"101 % of control"
>>> result("CCOC(=O)c1cc(OC)c[nH]1")
"94 % of control"
>>> result("O=C(O)/C(Br)=C\\c1cccc([N+](=O)[O-])c1")
"107 % of control"
>>> result("CCOC(=O)CCCNCCCC(=O)OCC")
"97 % of control"
>>> result("CC(=O)NC(Cc1cnc[nH]1)C(=O)O (stereo not given)")
"97 % of control"
>>> result("S=c1nc[nH]c2c1ncn2C1OC(COCc2ccccc2)C(OCc2ccccc2)C1OCc1ccccc1 (stereo not given)")
"102 % of control"
>>> result("c1cc2c3c(c1)[I+]c1cccc(c1-3)[I+]2")
"116 % of control"
>>> result("CC1CC(C)(C)OB(OC(C)CC(C)(C)OB2OC(C)CC(C)(C)O2)O1 (stereo not given)")
"107 % of control"
>>> result("NC(=O)C[n+]1ccccc1")
"106 % of control"
>>> result("Cn1nc(-c2ccc([N+](=O)[O-])o2)nc1N")
"96 % of control"
>>> result("O=S1(=O)CCCCc2c1ccc1ccccc21")
"101 % of control"
>>> result("CC12CC3C(C(=O)O)C(C(=O)O)C1C(C(=O)O2)C3C(=O)O (stereo not given)")
"91 % of control"
>>> result("CC(C)(C)OC(=O)NC(Cc1ccccc1)C(=O)O (stereo not given)")
"100 % of control"
>>> result("CCOC(=O)C1(C(C)=O)CC=CC1")
"100 % of control"
>>> result("N#CC(C#N)=Cc1cc(Cl)ccc1O")
"96 % of control"
>>> result("Cc1cc(C)c2c(=O)[nH]c(=S)[nH]c2n1")
"108 % of control"
>>> result("CCOC(=O)c1ccc2c3c(ccc(C(=O)OCC)c13)C=C2")
"88 % of control"
>>> result("Nc1ncnc2c1ncn2C1COC(CO)C1O (stereo not given)")
"103 % of control"
>>> result("CC(c1ccccc1)n1cnc2c(=S)nc[nH]c21 (stereo not given)")
"92 % of control"
>>> result("S=P(c1ccccc1)(N1CCN(c2ccc(Cl)cc2)CC1)N1CCN(c2ccc(Cl)cc2)CC1")
"88 % of control"
>>> result("O=[N+]([O-])c1ccc(NCCO)cc1")
"96 % of control"
>>> result("CCC1([N+](=O)[O-])COP(=O)(OC(=O)c2ccc([N+](=O)[O-])cc2)OC1 (stereo not given)")
"91 % of control"
>>> result("Cn1ncc2cncnc21")
"103 % of control"
>>> result("CCCCCOC(=S)S")
"109 % of control"
>>> result("N#CC(c1ccc(Cl)cc1)c1ccc(N(CCO)CCO)cc1 (stereo not given)")
"99 % of control"
>>> result("Nc1cccc(CC(=O)Nc2ccc(S(=O)(=O)F)cc2)c1")
"90 % of control"
>>> result("Oc1ccccc1C1OCCO1")
"107 % of control"
>>> result("Cc1cc(/C=C2\\C=Cc3ccccc32)ccc1N(C)C")
"94 % of control"
>>> result("CC(C)OC(=O)C(C)OC(=O)OCCOCCOC(=O)OC(C)C(=O)OC(C)C (stereo not given)")
"96 % of control"
>>> result("CC(C)Cc1nc2c([nH]1)c(=O)n(C)c(=O)n2C")
"104 % of control"
